Molecular target: AmpC (Pseudomonas aeruginosa)
Construct: subcloned into pRham vector to have it in the full-length version; made in house; host or cells: E. coli BL21(DE3), plasmid pRham-AmpC
Sequence (P24735 27-397): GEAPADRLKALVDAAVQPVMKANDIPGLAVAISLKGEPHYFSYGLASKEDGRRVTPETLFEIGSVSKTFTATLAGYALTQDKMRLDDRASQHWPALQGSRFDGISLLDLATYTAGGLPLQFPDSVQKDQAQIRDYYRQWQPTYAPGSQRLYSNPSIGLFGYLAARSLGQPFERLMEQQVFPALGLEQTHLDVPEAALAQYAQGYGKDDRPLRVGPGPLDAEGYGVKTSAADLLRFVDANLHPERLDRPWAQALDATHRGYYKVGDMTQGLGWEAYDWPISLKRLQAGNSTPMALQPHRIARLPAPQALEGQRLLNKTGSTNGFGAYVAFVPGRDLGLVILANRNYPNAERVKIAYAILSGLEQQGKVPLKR
Assay: In vitro enzyme inhibition assay against AmpC (nitrocefin reporter substrate)
Format: biochemical
endpoint.label: pKi
Please keep in mind that pKi is minus log10 of the molar concentration; only the number is needed.

Which pKi reading was recorded for the compound O=C(O)CCc1ccccc1B(O)O [Compound 4] ?
4.12

Similarly, O=C(O)C=Cc1cccc(B(O)O)c1 [Compound 3, [3-(2-carboxyvinyl)phenyl] boronic acid] ?
5.84

Similarly, O=C(O)CCc1cccc(B(O)O)c1 [Compound 5] ?
5.28

Similarly, O=C(O)C=Cc1ccccc1B(O)O [Compound 2, [2-(2-carboxyvinyl)-phenyl]boronic acid] ?
4.38

###

Molecular target: UniProtKB Q9F663
Sequence (Q9F663 25-293 limits assumed): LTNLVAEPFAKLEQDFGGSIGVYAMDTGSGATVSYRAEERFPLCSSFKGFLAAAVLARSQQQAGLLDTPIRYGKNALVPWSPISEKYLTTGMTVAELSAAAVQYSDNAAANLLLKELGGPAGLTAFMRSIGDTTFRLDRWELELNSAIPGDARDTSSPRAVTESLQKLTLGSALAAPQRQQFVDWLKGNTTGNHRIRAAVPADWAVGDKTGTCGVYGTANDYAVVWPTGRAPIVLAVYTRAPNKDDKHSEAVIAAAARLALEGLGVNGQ
Test: In vitro enzyme inhibition assay against KPC-2 (nitrocefin reporter substrate)
Assignment: determine reported Ki for the given compounds.
Return type: number; implicit unit µM.

Which Ki reading was recorded for the compound O=C(O)C=Cc1ccccc1B(O)O [Compound 2, [2-(2-carboxyvinyl)-phenyl]boronic acid] ?
2.43

Similarly, "O=C(O)CCc1cccc(B(O)O)c1" ?
53

Similarly, "O=C(O)CCc1ccccc1B(O)O" ?
1.13

Similarly, O=C(O)C=Cc1cccc(B(O)O)c1 [Compound 3, [3-(2-carboxyvinyl)phenyl] boronic acid] ?
31.2

###

System: Pseudomonas aeruginosa overexpressing AmpC
Experiment: Checkerboard microdilution assay and FICI, ceftazidime plus inhibitor
Type: cell-based
Details: P aeruginosa 12; CAZ + inhibitor; synergy FICI ≤0.5, indifference >0.5 and ≤4, antagonism >4
endpoint.label: FICI Antibiotic + inhibitor
Respond with the number and no other words.

Query for Pseudomonas aeruginosa overexpressing AmpC: what FICI Antibiotic + inhibitor does the record show for O=C(O)C=Cc1ccccc1B(O)O [Compound 2, [2-(2-carboxyvinyl)-phenyl]boronic acid] ?
2

Similarly, O=C(O)C=Cc1cccc(B(O)O)c1 [Compound 3, [3-(2-carboxyvinyl)phenyl] boronic acid] ?
0.5

Similarly, O=C(O)CCc1cccc(B(O)O)c1 [Compound 5] ?
0.3750

Similarly, O=C(O)CCc1ccccc1B(O)O [Compound 4] ?
2

###

Assignment: determine reported FICI Antibiotic + inhibitor for the given compounds.
Test system: Pseudomonas aeruginosa overexpressing AmpC
Test: Checkerboard microdilution assay and FICI, ceftazidime plus inhibitor
Assay type: cell-based
Settings: P aeruginosa 148; CAZ + inhibitor; synergy FICI ≤0.5, indifference >0.5 and ≤4, antagonism >4
Respond with the number and no other words.

Which FICI Antibiotic + inhibitor reading was recorded for the compound "O=C(O)CCc1ccccc1B(O)O" ?
1.5

Similarly, O=C(O)C=Cc1ccccc1B(O)O [Compound 2, [2-(2-carboxyvinyl)-phenyl]boronic acid] ?
1

Similarly, "O=C(O)CCc1cccc(B(O)O)c1" ?
0.0936

Similarly, O=C(O)C=Cc1cccc(B(O)O)c1 [Compound 3, [3-(2-carboxyvinyl)phenyl] boronic acid] ?
0.375

###

Biological target: GES-5 (Klebsiella pneumoniae, UniProt Q09HD0)
Sequence (Q09HD0 19-287): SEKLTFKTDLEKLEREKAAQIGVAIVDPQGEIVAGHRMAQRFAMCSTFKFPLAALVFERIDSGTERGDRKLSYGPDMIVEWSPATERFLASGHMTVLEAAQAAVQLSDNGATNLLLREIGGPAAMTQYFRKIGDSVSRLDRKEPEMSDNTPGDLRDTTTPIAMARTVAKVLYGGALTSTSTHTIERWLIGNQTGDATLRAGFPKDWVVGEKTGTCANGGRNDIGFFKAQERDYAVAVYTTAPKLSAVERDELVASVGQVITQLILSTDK
Test: In vitro enzyme inhibition assay against GES-5 (nitrocefin reporter substrate)
Assignment: determine reported Ki for the given compounds.
Return type: number; implicit unit µM.

Which Ki reading was recorded for the compound O=C(O)CCc1cccc(B(O)O)c1 [Compound 5] ?
69.4

Similarly, O=C(O)C=Cc1ccccc1B(O)O [Compound 2, [2-(2-carboxyvinyl)-phenyl]boronic acid] ?
0.11

Similarly, O=C(O)C=Cc1cccc(B(O)O)c1 [Compound 3, [3-(2-carboxyvinyl)phenyl] boronic acid] ?
24.6

Similarly, O=C(O)CCc1ccccc1B(O)O [Compound 4] ?
1.83
